# experimental system: T1, RBFOX1 RRM RbFoxmut (Fox-RRM*) (Homo sapiens, UniProt Q9NWB1 109-208, R118D;E147R;N151S;E152T)
# T1 sequence: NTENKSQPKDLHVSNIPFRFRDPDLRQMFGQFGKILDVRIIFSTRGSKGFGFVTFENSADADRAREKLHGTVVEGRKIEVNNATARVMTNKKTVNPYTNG
# assay info: EMSA; HiTS-Eq, 1 nM pool, 10 min; buffer printed only for the single-RNA assays: 10 mM Tris pH 7.5, 150 mM NaCl, 3.4 mM EDTA, 0.001% NP-40, 30 C
# condition context: tags: His6 N-terminal (pET28a); label: 5' 32P
Over roughly 16,000 sequences, “ka relative to ugcaugu” has its median near 0.096; the highest 2% begin near 0.35. The list comes from a sample in which the highest values are over-represented; it also holds close analogues and randomly drawn sequences.
binding signal values for the binders below.
parameter measured: binding signal

1. CUGUUGU (DNA:RNA) RNA: GGGAGACCGGAAUUCAGAUUGUCCCUGUUGUUUAAAUCCCGUCGUAGCCACCA DNA 1: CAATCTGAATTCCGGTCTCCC DNA 2: TGGTGGCTACGACGGGATT :: 0.166 KA relative to UGCAUGU
2. UGUCCGU (DNA:RNA) RNA: GGGAGACCGGAAUUCAGAUUGUCCUGUCCGUUUAAAUCCCGUCGUAGCCACCA DNA 1: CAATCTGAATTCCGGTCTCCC DNA 2: TGGTGGCTACGACGGGATT :: 0.147 KA relative to UGCAUGU
3. UUAUACA (DNA:RNA) RNA: GGGAGACCGGAAUUCAGAUUGUCCUUAUACAUUAAAUCCCGUCGUAGCCACCA DNA 1: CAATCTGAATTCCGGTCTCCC DNA 2: TGGTGGCTACGACGGGATT :: 0.0696 KA relative to UGCAUGU
4. UGGACGU (DNA:RNA) RNA: GGGAGACCGGAAUUCAGAUUGUCCUGGACGUUUAAAUCCCGUCGUAGCCACCA DNA 1: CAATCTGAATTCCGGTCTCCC DNA 2: TGGTGGCTACGACGGGATT :: 0.147 KA relative to UGCAUGU
5. CUGUUUG (DNA:RNA) RNA: GGGAGACCGGAAUUCAGAUUGUCCCUGUUUGUUAAAUCCCGUCGUAGCCACCA DNA 1: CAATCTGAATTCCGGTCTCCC DNA 2: TGGTGGCTACGACGGGATT :: 0.75 KA relative to UGCAUGU
6. UGUGUGU (DNA:RNA) RNA: GGGAGACCGGAAUUCAGAUUGUCCUGUGUGUUUAAAUCCCGUCGUAGCCACCA DNA 1: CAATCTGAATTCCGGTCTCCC DNA 2: TGGTGGCTACGACGGGATT :: 0.366 KA relative to UGCAUGU
7. CGAACGU (DNA:RNA) RNA: GGGAGACCGGAAUUCAGAUUGUCCCGAACGUUUAAAUCCCGUCGUAGCCACCA DNA 1: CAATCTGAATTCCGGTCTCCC DNA 2: TGGTGGCTACGACGGGATT :: 0.175 KA relative to UGCAUGU
8. CCGAACG (DNA:RNA) RNA: GGGAGACCGGAAUUCAGAUUGUCCCCGAACGUUAAAUCCCGUCGUAGCCACCA DNA 1: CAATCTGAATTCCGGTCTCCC DNA 2: TGGTGGCTACGACGGGATT :: 0.211 KA relative to UGCAUGU
9. UAAACAG (DNA:RNA) RNA: GGGAGACCGGAAUUCAGAUUGUCCUAAACAGUUAAAUCCCGUCGUAGCCACCA DNA 1: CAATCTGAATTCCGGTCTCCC DNA 2: TGGTGGCTACGACGGGATT :: 0.0612 KA relative to UGCAUGU
10. UGUUUGU (DNA:RNA) RNA: GGGAGACCGGAAUUCAGAUUGUCCUGUUUGUUUAAAUCCCGUCGUAGCCACCA DNA 1: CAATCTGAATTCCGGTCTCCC DNA 2: TGGTGGCTACGACGGGATT :: 0.549 KA relative to UGCAUGU
11. GUUAACG (DNA:RNA) RNA: GGGAGACCGGAAUUCAGAUUGUCCGUUAACGUUAAAUCCCGUCGUAGCCACCA DNA 1: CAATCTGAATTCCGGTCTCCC DNA 2: TGGTGGCTACGACGGGATT :: 0.111 KA relative to UGCAUGU
12. CCCUGUG (DNA:RNA) RNA: GGGAGACCGGAAUUCAGAUUGUCCCCCUGUGUUAAAUCCCGUCGUAGCCACCA DNA 1: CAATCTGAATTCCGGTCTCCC DNA 2: TGGTGGCTACGACGGGATT :: 0.138 KA relative to UGCAUGU
13. CUGUCGU (DNA:RNA) RNA: GGGAGACCGGAAUUCAGAUUGUCCCUGUCGUUUAAAUCCCGUCGUAGCCACCA DNA 1: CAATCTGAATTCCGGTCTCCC DNA 2: TGGTGGCTACGACGGGATT :: 0.138 KA relative to UGCAUGU
14. ACCUGUG (DNA:RNA) RNA: GGGAGACCGGAAUUCAGAUUGUCCACCUGUGUUAAAUCCCGUCGUAGCCACCA DNA 1: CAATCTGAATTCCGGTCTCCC DNA 2: TGGTGGCTACGACGGGATT :: 0.139 KA relative to UGCAUGU
15. CGGGAUC (DNA:RNA) RNA: GGGAGACCGGAAUUCAGAUUGUCCCGGGAUCUUAAAUCCCGUCGUAGCCACCA DNA 1: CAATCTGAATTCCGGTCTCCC DNA 2: TGGTGGCTACGACGGGATT :: 0.141 KA relative to UGCAUGU
16. UUAAACG (DNA:RNA) RNA: GGGAGACCGGAAUUCAGAUUGUCCUUAAACGUUAAAUCCCGUCGUAGCCACCA DNA 1: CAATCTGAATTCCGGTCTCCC DNA 2: TGGTGGCTACGACGGGATT :: 0.0812 KA relative to UGCAUGU
17. CUGUGUU (DNA:RNA) RNA: GGGAGACCGGAAUUCAGAUUGUCCCUGUGUUUUAAAUCCCGUCGUAGCCACCA DNA 1: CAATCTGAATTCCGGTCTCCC DNA 2: TGGTGGCTACGACGGGATT :: 0.14 KA relative to UGCAUGU
